- Procedure Text: Growth inhibition of human SF539 cells at 10 uM after 48 hrs by sulforhodamine B assay
- Format: functional
- Conditions Used: SF-539, 48 h, values are per cent of control
Each entry belongs to exactly one class, chosen by where its growth, % of control at 10 µM falls: zone 1 (below 70%), zone 2 (70% to below 90%), zone 3 (90% or more)

Answered examples (4):
# Chem Smiles, Group Label
measured = [
    ("N#C/C(=C\\c1c(Cl)cccc1Cl)c1ccc2c(c1)OCO2", "zone 3"),
    ("N#C/C(=C\\c1cc2ccccc2s1)c1ccc2c(c1)OCO2", "zone 1"),
    ("N#C/C(=C\\c1cc(F)cc(F)c1)c1ccc2c(c1)OCO2", "zone 3"),
    ("N#C/C(=C\\c1ccc(Cl)cc1Cl)c1ccc2c(c1)OCO2", "zone 3"),
]

Challenge: GET /class?item= `N#C/C(=C\c1cccnc1Cl)c1ccc2c(c1)OCO2`
Response given: zone 3

Challenge: GET /class?item= `COc1ccc(/C(C#N)=C/c2ccc3c(c2)OCCO3)cc1`
Response given: zone 1

Challenge: GET /class?item= `N#C/C(=C\c1ccc(Cl)c(Cl)c1)c1ccc2c(c1)OCO2`
Response given: zone 2

Challenge: GET /class?item= `COc1ccc(/C=C(\C#N)c2ccc3c(c2)OCO3)cc1`
Response given: zone 1

----------
- System: NCI-H460
- Procedure Text: Growth inhibition of human NCI-H460 cells at 10 uM after 48 hrs by sulforhodamine B assay
- Assay type: functional
- Conditions Used: NCI-H460, 48 h, values are per cent of control
The label is TRUE for growth, % of control at 10 µM below 20% and FALSE for growth, % of control at 10 µM equal to or exceeding 20%.

Answered examples (5):
# Chem Smiles, Group Label
records = [
    ("COc1ccc(/C(C#N)=C/c2ccc3c(c2)OCCO3)cc1OC", "TRUE"),
    ("N#C/C(=C\\c1cc2ccccc2s1)c1ccc2c(c1)OCO2", "TRUE"),
    ("N#C/C(=C\\c1cc(Br)cc(Br)c1)c1ccc2c(c1)OCO2", "FALSE"),
    ("N#C/C(=C\\c1ccc2ccccc2n1)c1ccc2c(c1)OCO2", "FALSE"),
    ("N#C/C(=C\\c1ccc(Cl)c(Cl)c1)c1ccc2c(c1)OCO2", "FALSE"),
]

Challenge: Quick check: growth, % of control at 10 µM of `COc1cc(/C(C#N)=C/c2ccc3c(c2)OCCO3)cc(OC)c1OC` under 20%?
Response given: TRUE

Challenge: Quick check: growth, % of control at 10 µM of `COc1ccc(/C=C(\C#N)c2ccc3c(c2)OCO3)c(Cl)c1OC` under 20%?
Response given: FALSE

----------
- Procedure Text: Growth inhibition of human BT549 cells at 10 uM after 48 hrs by sulforhodamine B assay
- Type: functional
- Conditions Used: BT-549, 48 h, values are per cent of control
Test Readout: growth, % of control at 10 µM (%)
Report the value in % with no unit label.

Illustrative cases are given below, each with its answer.
# Chem Smiles, Units Label, Value Observed
records = [
    ("N#C/C(=C\\c1ccc(Cl)cc1Cl)c1ccc2c(c1)OCO2", "%", 86.4),
    ("N#C/C(=C\\c1c(Cl)cccc1Cl)c1ccc2c(c1)OCO2", "%", 100),
    ("N#C/C(=C\\c1cccnc1Cl)c1ccc2c(c1)OCO2", "%", 88.5),
    ("N#C/C(=C\\c1ccc(Cl)c(Cl)c1)c1ccc2c(c1)OCO2", "%", 94.1),
    ("COc1ccc(/C=C(\\C#N)c2ccc3c(c2)OCO3)cc1", "%", 30.3),
]

Challenge: Quick one: growth, % of control at 10 µM for `COc1ccc(/C=C(\C#N)c2ccc3c(c2)OCO3)cc1OC` ?
Response given: 91.8

Challenge: Quick one: growth, % of control at 10 µM for `N#C/C(=C\c1cc2ccccc2s1)c1ccc2c(c1)OCO2` ?
Response given: 56.4

----------
- Procedure Text: Growth inhibition of human SF295 cells at 10 uM after 48 hrs by sulforhodamine B assay
- Type: functional
- Conditions Used: SF-295, 48 h, values are per cent of control
Test Readout: growth, % of control at 10 µM (%)
Report the value in % with no unit label.

Illustrative cases are given below, each with its answer.
# Chem Smiles, Value Observed
rows = [
    ("N#C/C(=C\\c1ccc(Cl)cc1Cl)c1ccc2c(c1)OCO2", 97.5),
    ("N#C/C(=C\\c1cc(Br)cc(Br)c1)c1ccc2c(c1)OCO2", 96.4),
    ("COc1cc(/C(C#N)=C/c2ccc3c(c2)OCCO3)cc(OC)c1OC", -8),
    ("N#C/C(=C\\c1ccc(Cl)c(Cl)c1)c1ccc2c(c1)OCO2", 77),
]

Challenge: Quick one: growth, % of control at 10 µM for `COc1ccc(/C=C(\C#N)c2ccc3c(c2)OCO3)cc1` ?
Response given: 11.2

Challenge: Quick one: growth, % of control at 10 µM for `N#C/C(=C\c1cc(F)cc(F)c1)c1ccc2c(c1)OCO2` ?
Response given: 98.5

Challenge: Quick one: growth, % of control at 10 µM for `COc1ccc(/C=C(\C#N)c2ccc3c(c2)OCO3)c(Cl)c1OC` ?
Response given: 91.1

----------
// reported growth, % of control at 10 µM per item
- Procedure Text: Growth inhibition of human HOP92 cells at 10 uM after 48 hrs by sulforhodamine B assay
- Format: functional
- Conditions Used: HOP-92, 48 h, values are per cent of control
Report the value in % with no unit label.

Illustrative cases are given below, each with its answer.
# Chem Smiles, Value Observed
records = [
    ("COc1ccc(/C=C(\\C#N)c2ccc3c(c2)OCO3)cn1", 64.9),
    ("N#C/C(=C\\c1cc(F)cc(F)c1)c1ccc2c(c1)OCO2", 125),
    ("COc1ccc(/C(C#N)=C/c2ccc3c(c2)OCO3)cc1", 93),
]

Now look at this one.
Challenge: Quick one: growth, % of control at 10 µM for `COc1ccc(/C(C#N)=C/c2ccc3c(c2)OCCO3)cc1OC` ?
Response given: 39.3

----------
- Procedure Text: Growth inhibition of human HOP92 cells after 48 hrs by sulforhodamine B assay
- Assay type: functional
- Conditions Used: HOP-92, 48 h
// reported GI50 per item
Report the value in µM with no unit label.

Illustrative cases are given below, each with its answer.
# Chem Smiles, GI50 (µM)
data = [
    ("COc1ccc(/C=C(\\C#N)c2ccc3c(c2)OCO3)cc1", 4.22),
    ("COc1ccc(/C=C(\\C#N)c2ccc3c(c2)OCO3)c(OC)c1", 7.42),
]

Challenge: Quick one: GI50 for `N#C/C(=C\c1cccc2ccccc12)c1ccc2c(c1)OCO2` ?
Response given: 4.55

----------
- Tested on: T47D
- Procedure Text: Growth inhibition of human T47D cells at 10 uM after 48 hrs by sulforhodamine B assay
- Type: functional
- Conditions Used: values are per cent of control
The label is Condition met for growth, % of control at 10 µM below 70% and Condition not met for growth, % of control at 10 µM equal to or exceeding 70%.

Answered examples (3):
# Chem Smiles, Group Label
data = [
    ("COc1ccc(/C(C#N)=C/c2ccc3c(c2)OCCO3)cc1OC", "Condition met"),
    ("COc1ccc(/C=C(\\C#N)c2ccc3c(c2)OCO3)c(Cl)c1OC", "Condition met"),
    ("N#C/C(=C\\c1cc(Br)cc(Br)c1)c1ccc2c(c1)OCO2", "Condition not met"),
]

Challenge: Quick check: growth, % of control at 10 µM of `COc1ccc(/C=C(\C#N)c2ccc3c(c2)OCO3)c(OC)c1` under 70%?
Response given: Condition met

Challenge: Quick check: growth, % of control at 10 µM of `N#C/C(=C\c1cccnc1Cl)c1ccc2c(c1)OCO2` under 70%?
Response given: Condition not met

----------
- Test system: NCI-H23
- Procedure Text: Growth inhibition of human NCI-H23 cells at 10 uM after 48 hrs by sulforhodamine B assay
- Format: functional
- Conditions Used: NCI-H23, 48 h, values are per cent of control
The label is yes (1) for growth, % of control at 10 µM below 90% and no (0) for growth, % of control at 10 µM equal to or exceeding 90%.

# Chem Smiles, Group Label
measured = [
    ("N#C/C(=C\\c1ccc2c(c1)OCO2)c1ccc2c(c1)OCO2", "yes (1)"),
    ("COc1cc(/C(C#N)=C/c2ccc3c(c2)OCCO3)cc(OC)c1OC", "yes (1)"),
]

Challenge: Quick check: growth, % of control at 10 µM of `N#C/C(=C\c1cc2ccccc2s1)c1ccc2c(c1)OCO2` under 90%?
Response given: yes (1)

Challenge: Quick check: growth, % of control at 10 µM of `COc1ccc(/C(C#N)=C/c2ccc3c(c2)OCO3)cc1` under 90%?
Response given: no (0)

Challenge: Quick check: growth, % of control at 10 µM of `COc1cc(/C=C(\C#N)c2ccc3c(c2)OCO3)cc(OC)c1` under 90%?
Response given: no (0)

Challenge: Quick check: growth, % of control at 10 µM of `N#C/C(=C\c1ccc(Cl)cc1Cl)c1ccc2c(c1)OCO2` under 90%?
Response given: no (0)

Challenge: Quick check: growth, % of control at 10 µM of `COc1ccc(/C=C(\C#N)c2ccc3c(c2)OCO3)c2ccccc12` under 90%?
Response given: yes (1)

Challenge: Quick check: growth, % of control at 10 µM of `COc1ccc(/C=C(\C#N)c2ccc3c(c2)OCO3)cc1OC` under 90%?
Response given: no (0)

Challenge: Quick check: growth, % of control at 10 µM of `COc1ccc(/C=C(\C#N)c2ccc3c(c2)OCO3)cc1` under 90%?
Response given: yes (1)

Challenge: Quick check: growth, % of control at 10 µM of `N#C/C(=C\c1cc(F)cc(F)c1)c1ccc2c(c1)OCO2` under 90%?
Response given: no (0)

Challenge: Quick check: growth, % of control at 10 µM of `COc1ccc(/C=C(\C#N)c2ccc3c(c2)OCO3)cn1` under 90%?
Response given: no (0)

Challenge: Quick check: growth, % of control at 10 µM of `N#C/C(=C\c1cccc2ccccc12)c1ccc2c(c1)OCO2` under 90%?
Response given: yes (1)

Challenge: Quick check: growth, % of control at 10 µM of `N#C/C(=C\c1c(Cl)cccc1Cl)c1ccc2c(c1)OCO2` under 90%?
Response given: no (0)

Values compiled from ChEMBL document CHEMBL3792365.
